The measured values listed here are drawn from PubChem BioAssay AID1240.

Target: Bcl-2-like protein 10 (Homo sapiens)
Experiment: TR3 peptide-Bcl-B binding displacers, biochemical primary FP assay, phenotype converters (AID 1240);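 note: 0% = Bcl-B with tracer peptide and DMSO and 100% = tracer peptide lacking Bcl-B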
Settings: GST-Bcl-B / FITC-TR3 peptide fluorescence polarization; stronger effect = higher value; compound at 3.75 mg/L
The campaign covered roughly 50,000 compounds. About 800 (1.6%) showed an effect of 50% or more. The entries come from a sample that favours strong results as a whole.

| molecule | displacement / % |
| --- | --- |
| N#C/C(=C/c1ccc(C#N)cc1)C(=O)Nc1cccc(Br)c1 | -8.5 |
| CSc1ccc(/C=N/NC(=O)c2cc(C)[nH]n2)cc1 | 3.8 |
| COC(=O)c1ccc(NC(=O)CC2Sc3ccccc3NC2=O)cc1 (stereo unspecified) | 3.1 |
| O=C(N/N=C\c1ccc(Cl)c(Cl)c1)c1cnccn1 | -7.3 |
| COc1cc([N+](=O)[O-])ccc1-c1ccc(/C=C(/C#N)C(=O)Nc2cccc(Br)c2)o1 | 92.4 |
| Cc1cc(Cl)ccc1NS(=O)(=O)c1cccc([N+](=O)[O-])c1 | -1.2 |
| Cn1nnnc1SCC(=O)Nc1ccccc1 | 4.1 |
| Cc1cccc(C=Nc2ccc(O)cc2)c1 | -8.4 |
| N#C/C(=C\c1ccc(-c2ccccc2[N+](=O)[O-])o1)C(=O)Nc1cccc(Br)c1 | -6.3 |
| COc1ccc(OC)c(/C=C(/C#N)C(=O)Nc2cccc(Br)c2)c1 | 100 |
| COc1ccc(Br)cc1/C=C/C(=O)N1CCN(c2ccc([N+](=O)[O-])cc2)CC1 | 12.3 |
